Recorded values, source ChEMBL document CHEMBL1201862.

- System: SK-OV-3
- TEST_METHOD_NOTES: NCI tumour cell line growth inhibition, 48 h
Active and inactive are the calls of the source. No stated cut-off is given here; in the data, active = GI50 up to about 1.1 µM and inactive = higher.
MEASURE: GI50

Q) Consider the compound Cc1cc2c(cc1C)[n+]([O-])c(NCCCN(C)C)c(C#N)[n+]2[O-] . State its measured GI50.
A) 81.5 µM (inactive)

Q) Consider the compound O=C(NC(=S)Nc1ccc(Br)cc1)c1ccc2c(c1)Sc1ccccc1S2 . State its measured GI50.
A) 16.7 µM (inactive)

Q) Consider the compound COc1cc2c3c(cc(Cl)nc3c1OC)C(O)(CC(=O)c1ccccc1)C(=O)N2 (stereo not given) . State its measured GI50.
A) 17.4 µM (inactive)

Q) Consider the compound CC(C)C(NC(=O)Oc1ccccc1)C(=O)NC1c2c(Br)sc(Br)c2C(=O)C1O (stereo not given) . State its measured GI50.
A) > 25 µM (inactive)

Q) Consider the compound Cc1ccc(NC(=O)c2cc(S(=O)(=O)Nc3nc4cccnc4[nH]3)c(SSc3cc(Cl)c(C(=O)Nc4ccc(C)cc4)cc3S(=O)(=O)Nc3nc4cccnc4[nH]3)cc2Cl)cc1 . State its measured GI50.
A) > 100 µM (inactive)

###

- System: NCI-H23
- TEST_METHOD_NOTES: NCI tumour cell line growth inhibition, 48 h
The source made the active and inactive calls. Cut-off read from the data, not from the text of the source: active = GI50 up to about 1.1 µM and inactive = higher.
GI50 by entry:

[
  {
    "MOLECULE": "O=c1c2cc(I)ccc2nc(Sc2ccc([N+](=O)[O-])cc2[N+](=O)[O-])n1Cc1ccccc1",
    "RESULT": "3.02 µM (inactive)"
  },
  {
    "MOLECULE": "COc1ccc(Nc2n[nH]c(NS(=O)(=O)c3cc(C)c(Cl)cc3S)n2)cc1",
    "RESULT": "> 100 µM (inactive)"
  },
  {
    "MOLECULE": "OCCn1cnc2c(SCc3ccccc3)ncnc21",
    "RESULT": "> 100 µM (inactive)"
  },
  {
    "MOLECULE": "O=S(=O)(O)c1cc(S(=O)(=O)O)c2cc(/N=N/c3ccc(/N=N/c4ccc(/C=C/c5ccc(/N=[N+](/[O-])c6ccc(/C=C/c7ccc(/N=N/c8ccc(/N=N/c9ccc%10cc(S(=O)(=O)O)cc(S(=O)(=O)O)c%10c9)cc8)cc7S(=O)(=O)O)c(S(=O)(=O)O)c6)cc5S(=O)(=O)O)c(S(=O)(=O)O)c4)cc3)ccc2c1",
    "RESULT": "> 77.8 µM (inactive)"
  },
  {
    "MOLECULE": "CCOC(=O)c1c(N)n(-c2ccccc2)c(=O)n(-c2ccccc2)c1=O",
    "RESULT": "> 100 µM (inactive)"
  },
  {
    "MOLECULE": "CCCCCC(O)(CCCCC)CCCCCCCCC1=C(O)C(=O)c2ccc(=O)[nH]c2C1=O",
    "RESULT": "2.61 µM (inactive)"
  },
  {
    "MOLECULE": "O=C1OC(C(O)CO)C(O)=C1O (stereo not drawn)",
    "RESULT": "> 100 µM (inactive)"
  }
]

Q) Find GI50 for NNC(=O)C(=O)N/N=C1\CCC(=O)CC1C(=O)CCC(=O)Nc1ccc(Cl)cc1 (stereo not drawn) on NCI-H23 and write it down.
A) > 100 µM (inactive)

###

- Test system: SF-295
- TEST_METHOD_NOTES: NCI tumour cell line growth inhibition, 48 h
Activity calls are given as the source filed them. Rule as the data show it: active = GI50 up to about 1.1 µM and inactive = higher.
GI50 by entry:

Examples with answers:
[
  {
    "COMPOUND": "CC(=NNC(=S)Nc1ccc(C)cc1)c1cccc(C(C)=NNC(=S)Nc2ccc(C)cc2)n1",
    "MEASURE": "GI50",
    "RESULT": "11 µM (inactive)"
  },
  {
    "COMPOUND": "O=C(c1c2c(cc3c1CC1(Cc4cc5c(cc4C1)CCCC5)C3)CCCC2)C(Br)Br",
    "MEASURE": "GI50",
    "RESULT": "58.6 µM (inactive)"
  },
  {
    "COMPOUND": "CN1c2ccccc2C(=O)NC12CCNCC2",
    "MEASURE": "GI50",
    "RESULT": "> 100 µM (inactive)"
  },
  {
    "COMPOUND": "CC12CCC3(OCCO3)C(OC(=O)c3ccccc3)=C1CCC21OCCO1 (stereo not given)",
    "MEASURE": "GI50",
    "RESULT": "> 100 µM (inactive)"
  },
  {
    "COMPOUND": "CCOP(=O)(O)C(C)(C)NC",
    "MEASURE": "GI50",
    "RESULT": "> 100 µM (inactive)"
  },
  {
    "COMPOUND": "CC1=C(C(=O)NNC(=O)CC#N)CC(C(=O)NNC(=O)CC#N)=C(C)N1",
    "MEASURE": "GI50",
    "RESULT": "> 100 µM (inactive)"
  },
  {
    "COMPOUND": "O=C1CC(c2cccc(Cl)c2)Nc2ccc(N3CCCC3)cc21 (stereo not given)",
    "MEASURE": "GI50",
    "RESULT": "0.0439 µM (active)"
  },
  {
    "COMPOUND": "C=C1C2CC(OC(C)=O)C3(C)C(c4ccoc4)OC(=O)[C@@H](O)[C@]13OC1C[C@H](OC(C)=O)C(C)(C)[C@H](C(O)C(=O)OC)[C@]12C (stereo not given in full)",
    "MEASURE": "GI50",
    "RESULT": "> 100 µM (inactive)"
  }
]

Q) Find GI50 for CCn1nc(C)c2c1C(=O)NC(C)C(=O)N2 (stereo not given) on SF-295 and write it down.
A) > 100 µM (inactive)

Q) Find GI50 for COC(=O)C1=C(O)C(C(=O)OC)[C@]2(O)[C@H](C(=O)OC)[C@H]1C[C@@H](c1ccc(F)cc1)[C@H]2C(=O)OC (stereo not given in full) on SF-295 and write it down.
A) 14.2 µM (inactive)

Q) Find GI50 for O=C/C(=C(/Br)I)c1ccccc1 on SF-295 and write it down.
A) 5.77 µM (inactive)

Q) Find GI50 for CC(=O)Nc1ccc(OC2=CCN(C)CC2)cc1 on SF-295 and write it down.
A) > 100 µM (inactive)

###

- Test system: 786-0
- TEST_METHOD_NOTES: NCI tumour cell line growth inhibition, 48 h
Calls of active or inactive are those of the source. Rule as the data show it: active = GI50 up to about 1.1 µM and inactive = higher.
Mark one answer only. Choices: active, inactive

[
  {
    "MOLECULE": "Nc1nc(N)c2cc(CNc3ccc(C(=O)NC(CC(=O)O)C(=O)O)c(Cl)c3)ccc2n1 (stereo not given)",
    "CLASS_LABEL": "active"
  },
  {
    "MOLECULE": "Cn1ccnc1CCc1c(Cl)cccc1Cl",
    "CLASS_LABEL": "inactive"
  },
  {
    "MOLECULE": "O=S(=O)(c1cc(Cl)ccc1Cl)n1ccnc1",
    "CLASS_LABEL": "inactive"
  },
  {
    "MOLECULE": "Cc1c(C(=O)CC(=O)C(=O)Nc2ccc(Cl)c(Cl)c2)[n+]([O-])c2ccccc2[n+]1[O-]",
    "CLASS_LABEL": "inactive"
  }
]

Please examine the following record next.
Q) I would be grateful if you could indicate the recorded call for CCCCCC(O)(CCCCC)CCCCCCCCC1=C(O)C(=O)c2ccc(=O)[nH]c2C1=O .
A) inactive

###

- Tested on: SNB-75
- TEST_METHOD_NOTES: NCI tumour cell line growth inhibition, 48 h
The source made the active and inactive calls. No stated cut-off is given here; in the data, active = GI50 up to about 1.1 µM and inactive = higher.
Mark one answer only. Choices: class 1 for active, class 0 for inactive

Example results:
[
  {
    "MOLECULE": "O=C1OC(=O)C([Se]c2ccccc2)=C1[Se]c1ccccc1",
    "TARGET_ENTITY": "SNB-75",
    "CLASS_LABEL": "class 0"
  },
  {
    "MOLECULE": "CCOP(=O)(OCC)C(F)(F)Cc1cnc(C)c2c1COC(C)(C)O2",
    "TARGET_ENTITY": "SNB-75",
    "CLASS_LABEL": "class 0"
  },
  {
    "MOLECULE": "Nc1nc2c(c(-c3ccccc3Cl)n1)COC/C2=C\\c1ccccc1Cl",
    "TARGET_ENTITY": "SNB-75",
    "CLASS_LABEL": "class 0"
  },
  {
    "MOLECULE": "COc1cc(OC)cc(-n2c(N)c(C#N)c3ccc([N+](=O)[O-])cc3c2=O)c1",
    "TARGET_ENTITY": "SNB-75",
    "CLASS_LABEL": "class 0"
  },
  {
    "MOLECULE": "O=CN1CCN(C(=O)c2ccc(Cl)c(Cl)c2)C1=S",
    "TARGET_ENTITY": "SNB-75",
    "CLASS_LABEL": "class 0"
  },
  {
    "MOLECULE": "CC12CC3CC/C(=N\\O)C(C1)C3(N1CCOCC1)C/C2=N/O (centres undefined)",
    "TARGET_ENTITY": "SNB-75",
    "CLASS_LABEL": "class 0"
  },
  {
    "MOLECULE": "O=c1cccc2n1CC1CNC[C@H]2C1 [CYTISINICLINE]",
    "TARGET_ENTITY": "SNB-75",
    "CLASS_LABEL": "class 0"
  },
  {
    "MOLECULE": "CC1CCc2sc3nc4n(c(=O)c3c2C1)CC(C)S4 (centres undefined)",
    "TARGET_ENTITY": "SNB-75",
    "CLASS_LABEL": "class 0"
  }
]

Q) I would be grateful if you could indicate the recorded call for Clc1cccc2c1OCC1C(c3ccccc3)=NN(c3ccccc3)C21 (centres undefined) .
A) class 0

Q) I would be grateful if you could indicate the recorded call for CCOC(=O)c1cnc2cc3cccccc3n2c1=O .
A) class 0

Q) I would be grateful if you could indicate the recorded call for c1ccc(CN2CCC(Nc3ccccc3)(c3nnnn3Cc3ccccc3)CC2)cc1 .
A) class 0
